These measurements were taken from the RNAGym collection of RNA variant scans (doi:10.7554/elife.80360).

B1: CPEB3 Ribozyme (parent)
chain: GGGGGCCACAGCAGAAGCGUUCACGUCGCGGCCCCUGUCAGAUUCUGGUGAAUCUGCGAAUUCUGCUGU

# Variants of: B1
# ASSAY: self-cleavage, relative activity (ratio to wild type); higher = more cleavage; co-transcriptional
Would you kindly list self-cleavage for each of these variants?

{"SEQUENCE": "GGGGGCCACAGCAGAAGCGUUCACGUCGCGGCCCCUGUCAGAUUCUGGUGAAUCAGCGAGUUCUGCUGU", "self-cleavage": 0.615}
{"SEQUENCE": "GGGGGCCACAGCACAAGCGUUCACGUCUCGGCCCCUGUCAGAUUCUGGUGAAUCUGCGAAUUCUGCUGU", "self-cleavage": 0.148}
{"SEQUENCE": "GGGGGCCACAGCAGAAGCGUUCACGUCGCGGCCCCUGUCAGAUUCUGGUGAAUCGGCGAAUUCUGCUAU", "self-cleavage": 0.951}
{"SEQUENCE": "GGGGGCCACAGCAGGAGCGUACACGUCGCGGCCCCUGUCAGAUUCUGGUGAAUCUGCGAAUUCUGCUGU", "self-cleavage": 0.956}

Hi team, please reply with self-cleavage for each item in this list.
1. GGGGGUCACAGCAGAAGCGUUCACGUCGCGGCCCCUGUCACAUUCUGGUGAAUCUGCGAAUUCUGCUGU
2. GGGGGCCACAGCAGAAGCGUUCACGUCGCGGACCCUGUCAGAUUCUGAUGAAUCUGCGAAUUCUGCUGU
3. GGGGGCCACAGCAGAAGCGUUCACGUCGCGGCCCAUGUCAGAUUCUGGGGAAUCUGCGAAUUCUGCUGU
4. GGGGCCCACAGCAGAAGCGUUCACGUCGCGGCCCCUGUCAGAUUCUGGUGAAUCUGCGAAUUCUACUGU

[reply]
0.708
0.875
0.26
0.158
